Test: in vitro
Measurement parameters: human, PC-3 prostate carcinoma cells
Measurement label: viability (%)
// note: answer is a bare numeric in %

Incoming: I have this molecule here, `O=C(CCCCCCC(=O)Nc1ccccc1)NO` , and I need its recorded viability.
Outgoing: 99

Data origin, for the record: patent US20190290759A1
